Molecular target: T1, TP-25 peptide (human)
T1 sequence (peptide, biotinylated): VMDVFIPKPFRAFAF
Test: indirect ELISA, biotinylated 15-mer on streptavidin plate
readout: OD (O.D. (405 nm))

Supply OD (O.D. (405 nm)) value. Item: ACI-7062-410H3-Ab1 (antibody, IgG1, V domains shown) VH: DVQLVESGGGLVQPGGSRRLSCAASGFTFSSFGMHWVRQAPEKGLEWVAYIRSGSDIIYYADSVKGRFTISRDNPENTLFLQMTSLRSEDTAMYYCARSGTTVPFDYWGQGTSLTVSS VL: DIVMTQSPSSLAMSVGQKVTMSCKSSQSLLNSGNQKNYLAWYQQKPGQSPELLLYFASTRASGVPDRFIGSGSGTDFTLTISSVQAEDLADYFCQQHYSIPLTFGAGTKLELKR 0.8

The reported numbers originate from patent US20230340090A1.
